Values from patent US4497818A

- PROTOCOL DETAILS: LD50, intraperitoneal injection in mice
- MEASUREMENT CONDITIONS: mouse, in vivo, ip, per body weight
QUANTITY NAME: LD50

COMPOUND	QUANTITY NAME	VALUE REPORTED
c1ccc2c(c1)OCC(Cc1ncc[nH]1)O2 (stereo not drawn)	LD50	70 mg/kg

Kindly give each listed record's LD50.
1. CCn1ccnc1CC1COc2ccccc2O1 (stereo not drawn)
2. CCCn1ccnc1CC1COc2ccccc2O1 (stereo not drawn)

200 mg/kg
200 mg/kg

* * *

Please provide measured log10(Kb) for the entries that follow.
- ASSAYED TARGET: post-synaptic α-adrenoceptor (α1) (Rattus norvegicus)
- Construct: from tissue; host or cells: rat isolated vas deferens, epididymal portion
- Sequence (P43140 whole entry): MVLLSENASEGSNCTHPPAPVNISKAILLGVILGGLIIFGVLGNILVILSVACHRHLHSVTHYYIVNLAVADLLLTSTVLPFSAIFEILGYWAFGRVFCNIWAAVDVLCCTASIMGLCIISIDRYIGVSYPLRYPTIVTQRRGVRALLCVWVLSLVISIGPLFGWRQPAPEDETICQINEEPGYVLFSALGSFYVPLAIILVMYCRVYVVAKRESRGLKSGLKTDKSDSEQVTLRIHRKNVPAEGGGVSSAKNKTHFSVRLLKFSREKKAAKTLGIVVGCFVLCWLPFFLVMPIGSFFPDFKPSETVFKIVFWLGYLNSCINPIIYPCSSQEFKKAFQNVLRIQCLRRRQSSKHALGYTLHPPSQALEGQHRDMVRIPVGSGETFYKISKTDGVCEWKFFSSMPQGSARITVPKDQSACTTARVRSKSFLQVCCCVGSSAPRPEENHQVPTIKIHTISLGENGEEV
- PROTOCOL DETAILS: Post-synaptic α-adrenoceptor blockade (epididymal portion of rat vas deferens, contractile effects of phenylephrine)
- Assay type: cell-based
- MEASUREMENT CONDITIONS: phenylephrine agonist, number of determinations in parentheses, for 1-ethyl b174 = lot No. 1, b175 = lot No. 2, read-out: pA2 (α1) (converted)
Hey, these are logged values: log10 of Kb, µM being the unit before logging.

Known results for molecules:
MOLECULE	log10(Kb)
c1ccc2c(c1)OCC(Cc1ncc[nH]1)O2 (centres unmarked)	-0.10
CCn1ccnc1CC1COc2ccccc2O1 (centres unmarked)	2.00
c1ccc2c(c1)OCC(CCc1ncc[nH]1)O2 (centres unmarked)	-0.21

Kindly give each listed record's log10(Kb).
1. Cn1ccnc1CC1COc2ccccc2O1 (centres unmarked)
2. CCCn1ccnc1CC1COc2ccccc2O1 (centres unmarked)

1. 1.70
2. 1.80
